Tested on: MRC5
testName: Cytotoxicity against human MRC5 cells by resazurin fluorescence-based viability assay
Assay type: cell-based
metric: EC50 (µM)

1) CC1=Nc2ccc(Cl)cc2C(c2ccccc2)N1Cc1cccc(N(C)C)c1 (racemic)
27
2) CC1=Nc2ccc(-c3ccccc3)cc2C(c2ccccc2)N1CCN1CCCCC1 (racemic)
3.4
3) CC1=Nc2ccc(Cl)cc2C(c2ccccc2)N1CCN1CCN(C)CC1 (racemic)
4.6
4) CC1=Nc2ccc(Cl)cc2C(c2ccccc2)N1CCN1CCN(C(=O)CN(C)C)CC1 (racemic)
6
5) CC1=Nc2ccc(Cl)cc2C(c2ccccc2)N1CCNC(=O)c1ccco1 (racemic)
22
6) CC1=Nc2ccc(Cl)cc2C(c2ccc(C)cc2)N1CCN1CCCCC1 (racemic)
5
7) CC1=Nc2ccc(Cl)cc2C(c2ccc(C)cc2)N1CCCN(C)C (racemic)
1.9
8) CC1=Nc2ccc(Cl)cc2C(c2ccccc2)N1Cc1ccccc1F (racemic)
36
9) CC1=Nc2ccc(I)cc2C(c2ccccc2)N1CCN1CCCCC1 (racemic)
6.8
10) CC1=Nc2ccc(Cl)cc2C(c2cccc(F)c2)N1CCN1CCCCC1 (stereo not drawn)
10
11) CC1=Nc2ccc(Cl)cc2C(c2ccccc2)N1CCN1CCN(C(=O)c2ccco2)CC1 (racemic)
23
12) CC1=Nc2ccc(Cl)cc2C(c2ccccc2)N1Cc1ccccc1 (racemic)
46
13) CC1=Nc2ccc(Cl)cc2C(O)(c2ccc(C)cc2)N1CCN1CCCCC1 (racemic)
5.7
14) CC1=Nc2ccc(Cl)cc2C(c2ccccc2)N1CCN1CCCCC1 (racemic)
14
15) CC1=Nc2ccc(Cl)cc2C(c2ccccc2)N1CCCN(C)C (racemic)
2.7
16) CC1=Nc2ccccc2C(c2ccccc2)N1CCN1CCCCC1 (racemic)
23
17) CC1=Nc2ccc(Cl)cc2C(c2ccccc2)N1CCNC(=O)CN(C)C (racemic)
12
18) CC1=Nc2ccc(Br)cc2C(c2ccccc2)N1CCN1CCCCC1 (racemic)
8.4

====

targetUnderTest: UniProt:P39051
testName: Inhibition of recombinant trypanothione reductase from Trypanosoma brucei brucei S427 by DTNB-coupled spectrophotometric assay
IC50 by entry:
metric: IC50

1. CC(=O)NCCN1C(C)=Nc2ccc(Cl)cc2C1c1ccccc1 (racemic)
2100 nM
2. CC1=Nc2ccc(Cl)cc2C(c2ccccc2)N1CCNC(=O)c1ccccc1 (racemic)
1700 nM
3. CC1=Nc2ccc(Cl)cc2C(c2ccccc2)N1CCN1CCN(C(=O)C2CC2)CC1 (racemic)
1500 nM
4. CC1=Nc2ccc(-c3ccccc3)cc2C(c2ccccc2)N1CCN1CCCCC1 (racemic)
7300 nM
5. CC1=Nc2ccc(-c3ccncc3)cc2C(c2ccccc2)N1CCN1CCCCC1 (stereo not given)
4400 nM

====

targetUnderTest: Trypanothione reductase (Trypanosoma brucei brucei)
testName: Inhibition of recombinant trypanothione reductase from Trypanosoma brucei brucei S427 by DTNB-coupled spectrophotometric assay
metric: IC50 (nM)

1. CC1=Nc2ccc(Cl)cc2C(c2ccccc2)N1CCN(C)C (racemic)
3500
2. CC1=Nc2ccc(Cl)cc2C(c2ccc(F)cc2)N1CCN1CCCCC1 (racemic)
4900
3. CC1=Nc2ccc(-c3ccco3)cc2C(c2ccccc2)N1CCN1CCCCC1 (racemic)
1300
4. CC1=Nc2ccc(Cl)cc2C(c2ccccc2)N1CCN1CCN(C(=O)c2ccco2)CC1 (racemic)
420
5. CC1=Nc2ccc(Cl)cc2C(c2ccccc2)N1CCCN(C)C (racemic)
1000
6. CC1=Nc2ccc(Cl)cc2C(c2ccccc2)N1CCN1CCOCC1 (racemic)
2800
7. CC1=Nc2ccc(Cl)cc2C(c2ccc(C)c(C)c2)N1CCN1CCCCC1 (racemic)
6800
8. CC1=Nc2ccc(Cl)cc2C(c2ccccc2)N1Cc1ccc(C)cc1 (racemic)
1300
9. COCC(=O)N1CCN(CCN2C(C)=Nc3ccc(Cl)cc3C2c2ccccc2)CC1 (racemic)
1600
10. CC1=Nc2ccc(Cl)cc2C(Cc2ccccc2)N1CCN1CCCCC1 (racemic)
50000
11. CC1=Nc2ccc(Cl)cc2C(c2ccccc2)N1CCNC(=O)C1CC1 (racemic)
2300
12. COc1ccccc1CN1C(C)=Nc2ccc(Cl)cc2C1c1ccccc1 (racemic)
1100
13. CC1=Nc2ccc(Cl)cc2C(c2ccccc2)N1Cc1ccc(C(F)(F)F)cc1 (racemic)
2200

====

targetUnderTest: Trypanothione reductase (Trypanosoma brucei brucei, UniProt P39051)
Sequence (P39051 whole entry): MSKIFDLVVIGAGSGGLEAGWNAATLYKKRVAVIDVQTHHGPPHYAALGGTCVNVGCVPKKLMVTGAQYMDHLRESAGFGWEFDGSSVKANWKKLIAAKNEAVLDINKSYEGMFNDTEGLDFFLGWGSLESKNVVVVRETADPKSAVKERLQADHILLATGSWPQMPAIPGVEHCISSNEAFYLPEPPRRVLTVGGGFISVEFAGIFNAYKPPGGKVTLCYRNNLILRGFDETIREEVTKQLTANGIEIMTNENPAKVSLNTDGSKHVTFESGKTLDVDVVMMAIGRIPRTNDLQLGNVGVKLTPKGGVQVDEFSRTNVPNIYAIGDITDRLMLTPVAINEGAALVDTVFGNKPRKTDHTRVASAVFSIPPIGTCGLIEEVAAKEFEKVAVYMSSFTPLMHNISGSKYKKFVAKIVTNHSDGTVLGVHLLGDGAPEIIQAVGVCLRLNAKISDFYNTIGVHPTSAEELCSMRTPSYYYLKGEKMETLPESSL
testName: Inhibition of recombinant trypanothione reductase from Trypanosoma brucei brucei S427 by DTNB-coupled spectrophotometric assay
metric: IC50

1. COC(=O)CN1C(C)=Nc2ccc(Br)cc2C1c1ccccc1Cl (racemic)
> 100000 nM
2. CC1=Nc2ccc(Cl)cc2C(O)(c2ccc(F)cc2)N1CCN1CCCCC1 (racemic)
8300 nM
3. CC1=Nc2ccc(Cl)cc2C(c2ccccc2)N1CCN1CCN(C(=O)OC(C)(C)C)CC1 (racemic)
1500 nM
4. CC1=Nc2ccc(Cl)cc2C(c2ccc(C)cc2)N1CCN1CCCCC1 (racemic)
590 nM
5. CNCCN1C(C)=Nc2ccc(Cl)cc2C1c1ccccc1 (racemic)
2000 nM
6. CC1=Nc2ccc(Cl)cc2C(c2ccccc2)N1CCNC(=O)c1ccco1 (racemic)
860 nM
7. COC(=O)CN1C(CN2CCOCC2)=Nc2ccc(Br)cc2C1c1ccccc1 (racemic)
89000 nM
8. CC1=Nc2ccc(Cl)cc2C(c2ccccc2)N1Cc1ccc(Cl)cc1 (racemic)
2200 nM
9. O=C1CN2C(=Nc3ccc(Br)cc3C2c2ccccc2)CCN1 (racemic)
39000 nM
10. CC1=Nc2ccc(Cl)cc2C(c2ccccc2)N1CCNC(=O)Cc1ccccc1 (racemic)
1800 nM
11. CC1=Nc2ccc(Cl)cc2C(c2cccc(O)c2)N1CCN1CCCCC1 (racemic)
1600 nM
12. CC1=Nc2ccc(Cl)cc2C(c2ccccc2)N1Cc1ccccc1 (racemic)
930 nM
13. CC1=Nc2ccc(Cl)cc2C(c2ccccc2)N1Cc1cccc(C(F)(F)F)c1 (racemic)
1500 nM
14. COC(=O)CN1C(C)=Nc2ccc(Br)cc2C1c1ccccc1 (racemic)
6800 nM
15. COC(=O)CN1C(c2cc(OC)c(OC)c(OC)c2)=Nc2ccc(C)cc2C1c1ccccc1 (racemic)
> 100000 nM
16. CC1=Nc2ccc(Cl)cc2C(c2ccccc2)N1Cc1cccc(Cl)c1 (racemic)
3500 nM
17. CC1=Nc2ccc(Cl)cc2C(c2ccccc2)N1CCN1CCN(C(=O)c2ccccc2)CC1 (racemic)
1600 nM
18. COCC(=O)NCCN1C(C)=Nc2ccc(Cl)cc2C1c1ccccc1 (racemic)
1300 nM
19. CC1=Nc2ccc(Cl)cc2C(c2ccccc2)N1CCN1CCN(C(=O)Cc2ccccc2)CC1 (racemic)
2000 nM
20. CC1=Nc2ccc(Cl)cc2C(c2ccccc2)N1CCO (racemic)
1700 nM
21. CC1=Nc2ccc(Cl)cc2C(c2ccc(C(C)(C)C)cc2)N1CCN1CCCCC1 (racemic)
7900 nM
22. CC1=Nc2ccc(Cl)cc2C(c2ccccc2)N1CCN1CCCCC1 (racemic)
1800 nM
23. COC(=O)CN1C(c2ccccc2)=Nc2ccc(C)cc2C1c1ccccc1 (racemic)
> 100000 nM
24. CC1=Nc2ccc(Cl)cc2C(C2CCCCC2)N1CCN1CCCCC1 (racemic)
27000 nM
25. CC1=Nc2ccc(Cl)cc2C(O)(c2ccc(C)cc2)N1CCN1CCCCC1 (racemic)
710 nM
26. CC1=Nc2ccc(Cl)cc2C(c2ccccc2)N1CCc1ccccc1 (racemic)
2000 nM
